Attribution: ChEMBL document CHEMBL1926681

procedure-text: Cytotoxicity against human PXF 1118L cells after 4 days by propidium iodide staining-based fluorometric analysis
Assay type: functional, cell-based
condition-summary: 96 h
attribute-measured: IC50 (µM)

INSERT INTO results (structure_smiles, display_unit, readout_number) VALUES
  ('C#Cc1cccc(Nc2ncnc3cc(OCCOC)c(OCCOC)cc23)c1', 'µM', 76.7),
  ('CS(=O)(=O)CCNCc1ccc(-c2ccc3ncnc(Nc4ccc(OCc5cccc(F)c5)c(Cl)c4)c3c2)o1', 'µM', 6.86),
  ('O=C(c1cc2ccccc2[nH]1)c1cc2c(Nc3cccc(Cl)c3)ncnc2s1', 'µM', 49.7),
  ('COc1ccc2[nH]c(C(=O)c3cc4c(Nc5ccc(F)c(Cl)c5)ncnc4s3)cc2c1', 'µM', 62.9),
  ('O=C(c1cc2ccccc2[nH]1)c1cc2c(Nc3ccc(F)c(Cl)c3)ncnc2s1', 'µM', 17.9),
  ('O=C(c1cc2cc(O)ccc2[nH]1)c1cc2c(Nc3ccc(F)c(Cl)c3)ncnc2s1', 'µM', 9.59);

###

Test system: OVCAR-3
procedure-text: Cytotoxicity against human OVCAR3 cells after 4 days by propidium iodide staining-based fluorometric analysis
Assay type: functional, cell-based
condition-summary: OVCAR-3, 96 h
pIC50: −log10 of the molar value.
attribute-measured: pIC50

INSERT INTO results (structure_smiles, attribute_measured, readout_number) VALUES
  ('CS(=O)(=O)CCNCc1ccc(-c2ccc3ncnc(Nc4ccc(OCc5cccc(F)c5)c(Cl)c4)c3c2)o1', 'pIC50', 4.87),
  ('O=C(c1cc2ccccc2[nH]1)c1cc2c(Nc3ccc(F)c(Cl)c3)ncnc2s1', 'pIC50', 5.07),
  ('O=C(c1cc2ccccc2[nH]1)c1cc2c(Nc3cccc(Cl)c3)ncnc2s1', 'pIC50', 4.82),
  ('C#Cc1cccc(Nc2ncnc3cc(OCCOC)c(OCCOC)cc23)c1', 'pIC50', 4.00),
  ('O=C(c1cc2cc(O)ccc2[nH]1)c1cc2c(Nc3ccc(F)c(Cl)c3)ncnc2s1', 'pIC50', 5.04),
  ('COc1ccc2[nH]c(C(=O)c3cc4c(Nc5ccc(F)c(Cl)c5)ncnc4s3)cc2c1', 'pIC50', 4.61);

###

experimental-target: Vascular endothelial growth factor receptor 2 (Homo sapiens) (UniProt P35968)
Sequence (P35968 whole entry): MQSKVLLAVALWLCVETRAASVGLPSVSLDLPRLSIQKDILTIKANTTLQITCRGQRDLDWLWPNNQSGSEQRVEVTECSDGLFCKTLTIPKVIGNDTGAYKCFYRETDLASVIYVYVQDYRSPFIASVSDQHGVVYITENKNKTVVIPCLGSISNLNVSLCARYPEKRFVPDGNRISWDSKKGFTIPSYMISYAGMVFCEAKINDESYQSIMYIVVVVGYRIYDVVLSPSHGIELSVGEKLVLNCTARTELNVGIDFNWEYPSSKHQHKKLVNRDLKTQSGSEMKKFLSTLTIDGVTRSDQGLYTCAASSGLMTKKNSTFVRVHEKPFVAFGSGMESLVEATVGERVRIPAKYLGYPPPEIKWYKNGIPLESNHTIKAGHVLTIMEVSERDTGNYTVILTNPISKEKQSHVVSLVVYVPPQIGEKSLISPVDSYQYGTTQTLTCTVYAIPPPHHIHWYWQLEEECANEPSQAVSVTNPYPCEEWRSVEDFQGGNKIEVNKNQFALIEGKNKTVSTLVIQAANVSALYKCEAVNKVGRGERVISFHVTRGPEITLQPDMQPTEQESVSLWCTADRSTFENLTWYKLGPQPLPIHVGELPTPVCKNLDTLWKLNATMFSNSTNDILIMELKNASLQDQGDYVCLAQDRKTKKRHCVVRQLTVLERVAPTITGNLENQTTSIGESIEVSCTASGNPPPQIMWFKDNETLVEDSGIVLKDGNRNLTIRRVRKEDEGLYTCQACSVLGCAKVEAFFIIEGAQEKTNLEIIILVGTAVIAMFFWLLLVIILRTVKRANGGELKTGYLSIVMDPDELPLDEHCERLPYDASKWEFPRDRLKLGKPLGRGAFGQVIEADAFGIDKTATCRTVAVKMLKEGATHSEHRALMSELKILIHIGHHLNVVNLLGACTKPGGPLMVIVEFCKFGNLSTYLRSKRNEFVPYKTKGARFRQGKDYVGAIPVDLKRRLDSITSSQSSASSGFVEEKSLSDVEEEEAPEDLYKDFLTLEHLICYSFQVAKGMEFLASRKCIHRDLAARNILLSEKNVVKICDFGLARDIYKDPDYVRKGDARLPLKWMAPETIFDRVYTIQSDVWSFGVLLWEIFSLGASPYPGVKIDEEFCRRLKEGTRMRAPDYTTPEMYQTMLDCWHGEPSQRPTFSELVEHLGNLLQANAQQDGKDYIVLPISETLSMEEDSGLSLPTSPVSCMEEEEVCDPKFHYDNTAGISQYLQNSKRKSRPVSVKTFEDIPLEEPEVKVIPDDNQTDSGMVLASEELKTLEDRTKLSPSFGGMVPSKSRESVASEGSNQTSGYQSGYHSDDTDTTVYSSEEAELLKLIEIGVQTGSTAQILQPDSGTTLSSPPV
procedure-text: Inhibition of VEGFR2 using poly(Glu,Tyr)4:1 as substrate and [gamma33P]ATP at 1 uM after 60 mins by scintillation counting
attribute-measured: inhibition (%)

INSERT INTO assay_data (structure_smiles, display_unit, readout_number) VALUES
  ('C[C@@H](Nc1ncnc2sc(C(=O)c3cc4ccccc4[nH]3)cc12)c1ccccc1', '%', 5),
  ('O=C(c1cc2ccccc2[nH]1)c1cc2c(Nc3ccc(Br)cc3F)ncnc2[nH]1', '%', 22),
  ('O=C(c1cc2ccccc2[nH]1)c1cc2c(NCc3ccccc3)ncnc2[nH]1', '%', 13),
  ('O=C(c1cc2ccccc2[nH]1)c1cc2c(Nc3ccc(F)cc3)ncnc2s1', '%', 45),
  ('O=C(c1cc2ccccc2[nH]1)c1cc2c(NCc3ccccc3)ncnc2s1', '%', 17),
  ('O=C(c1cc2ccccc2[nH]1)c1cc2c(Nc3ccc(F)c(Cl)c3)ncnc2s1', '%', 15),
  ('CN(c1ccc(F)c(Cl)c1)c1ncnc2sc(C(=O)c3cc4ccccc4[nH]3)cc12', '%', 23),
  ('C#Cc1cccc(Nc2ncnc3sc(C(=O)c4cc5ccccc5[nH]4)cc23)c1', '%', 9),
  ('O=C(c1cc2ccccc2[nH]1)c1cc2c(Nc3ccc(O)cc3)ncnc2[nH]1', '%', 31),
  ('O=C(c1cc2ccccc2[nH]1)c1cc2c(Nc3ccc(C(F)(F)F)cc3)ncnc2s1', '%', 24);
